- Tested on: White Clover (Trifolium repens)
- experimental_details: Range & Pasture Crop Testing (postemergence track sprayer)
- Format: in vivo
- reported_conditions: Table 10
As shown below, each of these compounds has a reported GR20 TRFRE value.
reported_endpoint: GR20 TRFRE

smiles_text	reported_endpoint	val
COC(=O)c1nc(Cl)cc(N)c1Cl	GR20 TRFRE	<17.5 g/ha
CCOC(=O)c1nc(Cl)cc(N)c1Cl	GR20 TRFRE	<17.5 g/ha
CCCOC(=O)c1nc(Cl)cc(N)c1Cl	GR20 TRFRE	<17.5 g/ha

Attribution: patent US20010047099A1
